Taken from the supplement of paper PMC10477900.

tested on: HCT116; assay: viability inhibition vs untreated; higher = more cytotoxic; details: genotype: MTA1-KO; 16 nM; 72 h
Catalogue of molecules with associated viability inhibition
Form field: result (number plus unit)

Please review the entries below; each comes with its answer.
| molecule | recorded-value |
| --- | --- |
| NCC(=O)Nc1ccc(-n2nc(C(F)(F)F)cc2-c2ccc3c(ccc4ccccc43)c2)cc1 | -0.655% |
| Cc1c(NC(=O)c2cc(C(N)=O)nc3cc(F)ccc23)c(C(F)(F)F)nn1Cc1ccc(C#N)cc1 [BAY876] | 50.2% |
| NC(=O)N/N=C/c1ccc([N+](=O)[O-])o1 [Furacilin] | -10.7% |

response.value for O=[N+]([O-])c1ccc(Nc2ccccc2-c2ccccc2)c2nonc12 (field: viability inhibition) = 2.01%
